// data source = patent US20200199692A1

# System: Lactobacillus plantarum LMC-1 ID 1952 DSM 32252
# assay.remarks: Antibiotic resistance profile (E-test, ABBiodisk)
# Format: cell-based
# experimental.setup: Lactiplantibacillus plantarum, DSM32252; Etest strips in agar; strain Lactobacillus plantarum LMC-1 ID 1952 DSM 32252; read-out: MIC
measurement.label: MIC
Write your answer as a measured quantity: the number, then the unit.

molecule="CC[C@H]1OC(=O)[C@H](C)[C@@H](O[C@H]2C[C@@](C)(OC)[C@@H](O)[C@H](C)O2)[C@H](C)[C@@H](O[C@@H]2O[C@H](C)C[C@H](N(C)C)[C@H]2O)[C@](C)(OC)C[C@@H](C)C(=O)[C@H](C)[C@@H](O)[C@]1(C)O [Clarithromycin]" measurement_label=MIC reading="0.25 µg/mL"

Consider the record given below.
Please provide the recorded MIC for [H]/N=C(/N)N[C@H]1[C@H](O)[C@@H](O)[C@H](O[C@@H]2O[C@@H](C)[C@](O)(C=O)[C@H]2O[C@@H]2O[C@@H](CO)[C@H](O)[C@@H](O)[C@@H]2NC)[C@@H](N/C(N)=N\[H])[C@@H]1O [Streptomycin] , tested on Lactobacillus plantarum LMC-1 ID 1952 DSM 32252. 16 µg/mL

###

# Test system: Commercial Bifidobacterium
# assay.remarks: Antibiotic resistance profile (E-test, ABBiodisk)
# Type: cell-based
# experimental.setup: Etest strips in agar; Commercial Bifidobacterium reference strain; read-out: MIC
Each record is given criterion met if its reported MIC is strictly below 0.2 µg/mL. Records at or above 0.2 µg/mL are given criterion not met.

compound="CN(C)[C@@H]1C(O)=C(C(N)=O)C(=O)[C@@]2(O)C(O)=C3C(=O)c4c(O)cccc4[C@@](C)(O)[C@H]3C[C@@H]12 [Tetracycline]" assigned_label="criterion not met"
compound="CO/N=C(\\C(=O)N[C@@H]1C(=O)N2C(C(=O)O)=C(COC(N)=O)CS[C@H]12)c1ccco1 [Cefuroxime]" assigned_label="criterion not met"
compound="O=C(O)c1cn(C2CC2)c2cc(N3CCNCC3)c(F)cc2c1=O [Ciprofloxacin]" assigned_label="criterion not met"
compound="[H]/N=C(/N)N[C@H]1[C@H](O)[C@@H](O)[C@H](O[C@@H]2O[C@@H](C)[C@](O)(C=O)[C@H]2O[C@@H]2O[C@@H](CO)[C@H](O)[C@@H](O)[C@@H]2NC)[C@@H](N/C(N)=N\\[H])[C@@H]1O [Streptomycin]" assigned_label="criterion not met"
compound="CC[C@H]1OC(=O)[C@H](C)[C@@H](O[C@H]2C[C@@](C)(OC)[C@@H](O)[C@H](C)O2)[C@H](C)[C@@H](O[C@@H]2O[C@H](C)C[C@H](N(C)C)[C@H]2O)[C@](C)(O)C[C@@H](C)CN(C)[C@H](C)[C@@H](O)[C@]1(C)O [Azithromycin]" assigned_label="criterion not met"
compound="CO[C@@]1(NC(=O)Cc2cccs2)C(=O)N2C(C(=O)O)=C(COC(N)=O)CS[C@@H]21 [Cefoxitin]" assigned_label="criterion not met"

Lab log: compare recorded MIC with 0.2 µg/mL; is it strictly lower for CC(=O)NC[C@H]1CN(c2ccc(N3CCOCC3)c(F)c2)C(=O)O1 [Linezolid] ? criterion not met

API: query returns whether the compound falls strictly under 0.2 µg/mL in MIC. Query: C[C@@H](O)[C@H]1C(=O)N2C(C(=O)O)=C(SCCN=CN)C[C@H]12 [Imipenem] criterion not met

Find out if reported MIC for CC[C@H]1OC(=O)[C@H](C)[C@@H](O[C@H]2C[C@@](C)(OC)[C@@H](O)[C@H](C)O2)[C@H](C)[C@@H](O[C@@H]2O[C@H](C)C[C@H](N(C)C)[C@H]2O)[C@](C)(O)C[C@@H](C)C(=O)[C@H](C)[C@@H](O)[C@]1(C)O [Erythromycin] is less than 0.2 µg/mL criterion met

Is MIC strictly under 0.2 µg/mL for the entry CC1(C)S[C@@H]2[C@H](NC(=O)[C@H](N)c3ccccc3)C(=O)N2[C@H]1C(=O)O [Ampicillin] ? criterion met

###

# System: Lactobacillus paracasei LMC-4 ID 1953 DSM 32254
# assay.remarks: Antibiotic resistance profile (E-test, ABBiodisk)
# Format: cell-based
# experimental.setup: Lacticaseibacillus paracasei, DSM32254; Etest strips in agar; strain Lactobacillus paracasei LMC-4 ID 1953 DSM 32254; read-out: MIC
Could you please mark Satisfied for values of MIC below 0.09 µg/mL and Not satisfied for values at or above it?

API: query returns whether the compound falls strictly under 0.09 µg/mL in MIC. Query: CO/N=C(\C(=O)N[C@@H]1C(=O)N2C(C(=O)O)=C(COC(N)=O)CS[C@H]12)c1ccco1 [Cefuroxime] Not satisfied

Problem: For the compound CN(C)[C@@H]1C(O)=C(C(N)=O)C(=O)[C@@]2(O)C(O)=C3C(=O)c4c(O)cccc4[C@@](C)(O)[C@H]3C[C@@H]12 [Tetracycline] , is MIC under 0.09 µg/mL? Not satisfied

Determine if CCC[C@@H]1C[C@@H](C(=O)N[C@@H]([C@H]2O[C@H](SC)[C@H](O)[C@@H](O)[C@H]2O)[C@H](C)Cl)N(C)C1 [Clindamycin] shows MIC strictly lower than 0.09 µg/mL. Satisfied

In the record for CO[C@@]1(NC(=O)Cc2cccs2)C(=O)N2C(C(=O)O)=C(COC(N)=O)CS[C@@H]21 [Cefoxitin] , is MIC less than 0.09 µg/mL? Not satisfied

###

Measured MIC by item
# System: Lactobacillus paracasei LMC-4 ID 1953 DSM 32254
# assay.remarks: Antibiotic resistance profile (E-test, ABBiodisk)
# Assay type: cell-based
# experimental.setup: Lacticaseibacillus paracasei, DSM32254; Etest strips in agar; strain Lactobacillus paracasei LMC-4 ID 1953 DSM 32254; read-out: MIC
Record the result as a number with its unit.

Give recorded MIC with Lactobacillus paracasei LMC-4 ID 1953 DSM 32254 for the following compound: CC1(C)S[C@@H]2[C@H](NC(=O)[C@H](N)c3ccccc3)C(=O)N2[C@H]1C(=O)O [Ampicillin] 0.094 µg/mL

Return MIC measured with Lactobacillus paracasei LMC-4 ID 1953 DSM 32254 given this compound: CO[C@H]1/C=C/O[C@@]2(C)Oc3c(C)c(O)c4c(O)c(c(/C=N/N5CCN(C)CC5)c(O)c4c3C2=O)NC(=O)/C(C)=C\C=C\[C@H](C)[C@H](O)[C@@H](C)[C@@H](O)[C@@H](C)[C@H](OC(C)=O)[C@@H]1C [Rifampicin] 0.016 µg/mL

Form field - read-out: MIC; system: Lactobacillus paracasei LMC-4 ID 1953 DSM 32254; submitted item: C[C@@H](O)[C@H]1C(=O)N2C(C(=O)O)=C(SCCN=CN)C[C@H]12 [Imipenem] 1.5 µg/mL
